Each entry below carries its recorded pIC50.
tested.system: NLRP3 (Homo sapiens (Human))
Sequence (Q96P20 whole entry): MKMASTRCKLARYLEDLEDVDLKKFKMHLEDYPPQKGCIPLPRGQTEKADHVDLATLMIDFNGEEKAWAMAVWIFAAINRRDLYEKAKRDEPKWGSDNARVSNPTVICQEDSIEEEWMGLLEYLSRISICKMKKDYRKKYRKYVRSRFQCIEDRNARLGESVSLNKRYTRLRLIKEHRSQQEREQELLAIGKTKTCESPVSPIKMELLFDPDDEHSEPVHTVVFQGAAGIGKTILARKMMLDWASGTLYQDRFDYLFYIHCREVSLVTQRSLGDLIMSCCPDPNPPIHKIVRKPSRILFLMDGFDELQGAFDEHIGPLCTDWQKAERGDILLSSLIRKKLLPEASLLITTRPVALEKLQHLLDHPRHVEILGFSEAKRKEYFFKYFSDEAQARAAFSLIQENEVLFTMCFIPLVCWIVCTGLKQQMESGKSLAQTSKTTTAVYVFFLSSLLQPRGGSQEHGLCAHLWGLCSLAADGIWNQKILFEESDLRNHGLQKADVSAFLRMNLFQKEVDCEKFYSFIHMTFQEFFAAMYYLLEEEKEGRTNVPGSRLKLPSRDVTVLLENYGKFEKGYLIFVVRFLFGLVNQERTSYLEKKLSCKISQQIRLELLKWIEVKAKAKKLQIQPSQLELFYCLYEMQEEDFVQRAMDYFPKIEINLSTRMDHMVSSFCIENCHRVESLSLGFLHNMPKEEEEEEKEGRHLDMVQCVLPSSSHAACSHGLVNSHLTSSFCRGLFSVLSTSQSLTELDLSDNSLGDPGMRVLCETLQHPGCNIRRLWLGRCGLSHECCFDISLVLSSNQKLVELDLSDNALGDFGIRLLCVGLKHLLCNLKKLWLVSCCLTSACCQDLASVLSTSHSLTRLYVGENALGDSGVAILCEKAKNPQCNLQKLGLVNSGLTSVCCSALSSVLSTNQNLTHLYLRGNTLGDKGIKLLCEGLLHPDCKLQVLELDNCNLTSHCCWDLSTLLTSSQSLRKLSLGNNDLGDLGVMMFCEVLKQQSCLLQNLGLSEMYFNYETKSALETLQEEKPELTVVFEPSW
assay: THP-1 cells pyroptosis assay (LPS + nigericin, resazurin read-out)
Assay type: cell-based
condition.notes: 1 μg/ml LPS, 5 μM nigericin
Experimental: THP-1 cells (ATCC #TIB-202) were grown in RPMI containing L-glutamine (Gibco 15 #11835) supplemented with 1 mM sodium pyruvate (Sigma #S8636) and penicillin (100 units/ml)/streptomycin (0.1 mg/ml) (Sigma #P4333) in 10% Fetal Bovine Serum (FBS) (Sigma #F0804). […] The cells were then counted and viability (>90%) checked by Trypan blue (Sigma #T8154). […] The following method step-by-step assay was followed for compound screening. • 1. […] Plates were read in an Envision reader at Ex 560 nm and Em 590 nm • 9. […]
pIC50: −log10 of the molar value. Counter-ions that a name gives are not always drawn.
result.type: pIC50

1. CCC(C)N1CC(S(=O)(=O)NC(=O)Nc2c3c(cc4c2CCC4)CCC3)C1 (stereo not drawn) [Example 122, potassium salt]	> 6.00
2. CCCN1CCC(S(=O)(=O)NC(=O)Nc2c3c(cc4c2CCC4)CCC3)CC1 [Example 19, potassium salt]	5.00 to 6.00
3. O=C(Nc1c2c(cc3c1CCC3)CCC2)NS(=O)(=O)C1CN(C(=O)OCc2ccccc2)C1 [Example 71, potassium salt]	> 6.00
4. O=C(Nc1c2c(cc3c1CCC3)CCC2)NS(=O)(=O)C1CCCN(C(=O)NC2CCC2)C1 (stereo not drawn) [Example 27, potassium salt]	5.00 to 6.00
5. O=C(Nc1c2c(cc3c1CCC3)CCC2)NS(=O)(=O)C1CCN(C2COC2)CC1 [Example 20, potassium salt]	5.00 to 6.00
6. CCC(=O)N1CCCC(S(=O)(=O)NC(=O)Nc2c3c(cc4c2CCC4)CCC3)C1 (stereo not drawn) [Example 32, potassium salt]	5.00 to 6.00
7. CC(C)c1cc(F)cc(-c2cccnc2)c1NC(=O)NS(=O)(=O)C1CCN(C(C)C)CC1	5.00 to 6.00
8. O=C(Nc1c2c(cc3c1CCC3)CCC2)NS(=O)(=O)C1CN(C2CSC2)C1 [Example 109, potassium salt]	> 6.00
9. COCCN1CC(S(=O)(=O)NC(=O)Nc2c3c(cc4c2CCC4)CCC3)C1 [Example 88, potassium salt]	> 6.00
10. C[Si](C)(C)CN1CC(S(=O)(=O)NC(=O)Nc2c3c(cc4c2CCC4)CCC3)C1 [Example 136, potassium salt]	5.00 to 6.00
11. O=C(Nc1c2c(cc3c1CCC3)CCC2)NS(=O)(=O)C1CCCN(CCF)C1 (stereo not drawn) [Example 34, potassium salt]	> 6.00
12. CCN1CC(S(=O)(=O)NC(=O)Nc2c(-c3ccnc(OC)c3)ccc3c2CCC3)C1	> 6.00
13. COc1cc(-c2cc(F)cc(C(C)C)c2NC(=O)NS(=O)(=O)C2CN(C3CCC3)C2)ccn1	> 6.00
14. COc1cc(-c2cc(F)cc(C(C)C)c2NC(=O)NS(=O)(=O)C2CN(Cc3cccnc3)C2)ccn1	5.00 to 6.00
15. CN(C)CCN1CC(S(=O)(=O)NC(=O)Nc2c3c(cc4c2CCC4)CCC3)C1 [Example 102, potassium salt]	5.00 to 6.00
